- Test system: MS2 coat protein
- Experimental details: apparent KD of MS2 coat protein; designed switch direction (-1 OFF switch, 1 ON switch): -1; higher = weaker reporter binding
- Assay context: Eterna round: R95; input ligand: FMN 200 uM
# apparent KD of MS2 coat protein annotations
Output spec: scalar in µM, unitless text.

Before answering, review these 3 worked examples.
Residues	Value units	apparent KD of MS2 coat protein
GCCGAUUAAGUCAGGAUAUACCUAUGGAUACAUAGGUAGAAGGGACAUGAGGAUCACCCAUGUGCCUCAACGGC [Fiskers BMX 4 - 18] (puzzle: Brourd's mod of Exclusion 4)	µM	0.0717
AAAACACAUGAGGAUCACCCAUGUGAGGAUAUGUUAAUUUUAAUGAAAAUUAAAAUUAACAGAAGGCACAGAAA [JR_Exclusion1_Sub024] (puzzle: Exclusion 1)	µM	0.0463
GAAAAGGUAGGAUAUAUGAAAAAAAAGGGUAGAAAAAAAACACAUGAGGAUCACCCAUGUAGAAGGACCAAAAG [salish99_ex2_r3_056] (puzzle: Exclusion 2)	µM	0.0372

// below: apparent KD of MS2 coat protein requested for another sequence
Returns the measured apparent KD of MS2 coat protein for the input sequence. Input: AUUUAGAGAGGAUAUAUAUUUUAAAACAUGAGGAUCACCCAUGUAAUUUUAUGGGAGAAAAUAGAAGGCUCAUUUA [JMFs Solution 1] (puzzle: Exclusion 5)
0.114

* * *

# apparent KD of MS2 coat protein annotations
- Tested on: MS2 coat protein
- Experimental details: apparent KD of MS2 coat protein; designed switch direction (-1 OFF switch, 1 ON switch): 1; higher = weaker reporter binding
- Assay context: Eterna round: R95; input ligand: microRNA oligo, concentration not stated
Output spec: scalar in µM, unitless text.

Residues	Tested target	Value units	apparent KD of MS2 coat protein
GGUUUAGUCAGGCACAAUUGCGCCUGAAAACAUGAGGAUCACCCAUGUUUGGGACAAGCUUUGCUCCUCGUCUUGCA [Enzati] (puzzle: Sensor for hsa-mir-208a)	MS2 coat protein	µM	0.0681

Returns the measured apparent KD of MS2 coat protein for the input sequence. Input: UCUUGGUUUUUGCUCGUUUUUUGUGUUGAACAUGAGGAUCACCCAUGUAUUGUACGGUCCGGUUUGAUAGUGGUCCA [JMF 45] (puzzle: Sensor for hsa-mir-208a)
0.0716

Returns the measured apparent KD of MS2 coat protein for the input sequence. Input: GGUCCAGCCUGAGCUGGACAAAAGCAUGUACAUGAGGAUCACCCAUGUUCAUGUACAAGCUUUUUGCUCGUCUUAUU [salish99_208a_r3_049] (puzzle: Sensor for hsa-mir-208a)
0.0158

Returns the measured apparent KD of MS2 coat protein for the input sequence. Input: AAGCGCUGUCGAGAGGAUAUGCGGUGAUGGACAUGAGGAUCACCCAUGUUAGCGAUAGCAUUACGGUAGAAGGCUCUACAGCUGA [Mat - Same State 2 - Mod of UCT - D86] (puzzle: Same State 2)
0.268

Returns the measured apparent KD of MS2 coat protein for the input sequence. Input: AGUCCAGCCUGAGCUGGACAAAAGCAUGUACAUGAGGAUCACCCAUGUCAUGUACAAGCUUUUUGCUCGAAAUAAUA [Mat - hsa-mir-208a - Mod of JL - D32] (puzzle: Sensor for hsa-mir-208a)
0.0146

Returns the measured apparent KD of MS2 coat protein for the input sequence. Input: ACGCAGCUGGGCAAGGAUAUCGGUGGUAAAACAUGAGGAUCACCCAUGUCCGAAGCUCGGACUUCCGAGAAGGUGCCCGGCUGCG [Soinraesar Omei Mod 8] (puzzle: Same State 2)
0.119

Returns the measured apparent KD of MS2 coat protein for the input sequence. Input: AUAAUACAUGAGGAUCACCCAUGUCAACAAAGUCGAGGAUAUGGGCAAAUAAAAUAAGAACCAGAAGGCGAAUAAU [salish99_ss1_r3_046] (puzzle: Same State 1)
0.359

Returns the measured apparent KD of MS2 coat protein for the input sequence. Input: AGUCCAGCGAAAGCUGGACAGAAGCAUGUACAUGAGGAUCACCCAUGUUCAUGUACAAGCUUUUUGCUCGUCUUAAA [JL mod - D95 - 1] (puzzle: Sensor for hsa-mir-208a)
0.0149

Returns the measured apparent KD of MS2 coat protein for the input sequence. Input: AGUCCAGCAAGAGCUGGACAAAAGCAUGUACAUGAGGAUCACCCAUGUCAUGUACAAGCUUUUUGCUCGUCUUAAAA [Mat - hsa-mir-208a - Mod of JL - D3] (puzzle: Sensor for hsa-mir-208a)
0.016

Returns the measured apparent KD of MS2 coat protein for the input sequence. Input: GUUAUACAUGAGGAUCACCCAUGUCAAUGUAGUCGAGGAUAUGGGCAGCUAUGAGGCGUACUAGAAGGCGAGGAGU [JL-ss1-3.15 ViennaUCT mod] (puzzle: Same State 1)
0.0905

* * *

- Test system: MS2 coat protein
- Experimental details: apparent KD of MS2 coat protein; designed switch direction (-1 OFF switch, 1 ON switch): 1; higher = weaker reporter binding
- Assay context: Eterna round: R98; input ligand: FMN 200 uM
Quantity kind: apparent KD of MS2 coat protein (nM)
Output spec: scalar in nM, unitless text.

Before answering, review these 4 worked examples.
Residues	Tested target	Value units	apparent KD of MS2 coat protein
UUUAUUUUUAGAGGAUAUAUAGAGAGAGAGAGAAUAGAAGGCUAAACAUACAUGAACAUGAGGAUCACCCAUGUCACCCAUGUU [Attempt 2]	MS2 coat protein	nM	34.3
AAAAUAAAAUAAAUUAACAUGAGGAUCACCCAUGUCGCUAGACAGGAUAUAUAAAAUAAAAUAAAGUAGAAGGGUCAAAUAAAA [LRO001_SS NG 3]	MS2 coat protein	nM	88.2
CCGAAUGUCACAGGAUAUGGUCCGGGCACGCGACCAGAAGGGUGAUCUCACAUGAGGAUCACCCAUGUGUAGGCGUUAGACUAC [Dierata]	MS2 coat protein	nM	191
CGGAUCGCAUGAGGAUAUGGUCAGCUUUGCUGACCAGAAGGCAUGUCAAUAGACAUGAGGAUCACCCAUGUAGUUAAGAUCCGA [Mat - Same State NG 1 - JL Mod - D17]	MS2 coat protein	nM	45.5

// below: apparent KD of MS2 coat protein requested for another sequence
Notebook: pull reported apparent KD of MS2 coat protein for MS2 coat protein, entry ACGUUAAUUCGAGGAUAUCGGUGAUUUAUAUUACGAGAAGGCGAUAAUUGUGAACAACUUAUAGACAUGAGGAUCACCCAUGUA [JR_SSNG1_Sub065]
21.3

* * *

- Test system: MS2 coat protein
- Experimental details: apparent KD of MS2 coat protein; designed switch direction (-1 OFF switch, 1 ON switch): -1; higher = weaker reporter binding
- Assay context: input ligand: FMN 200 uM
# apparent KD of MS2 coat protein annotations
Output spec: scalar in nM, unitless text.

Before answering, review these 5 worked examples.
Residues	Tested target	apparent KD of MS2 coat protein, nM
UAAGUGUCAGGAUAUACAUGAGGAUCACCCAUGUGCCUCGCUACGGCCAGGCUCCCGUGUAGAAGGGAUCGUAA [Eternabot (Original) Solution 23] (Eterna round: R97, puzzle: Exclusion 3)	MS2 coat protein	110
AGUUGGCGAGGAUAUACAUGAGGAUCACCCAUGUAUGAGAUAAAAGUGAGGUAAAUAUGUAGAAGGCGCUGACA [JR_Ex3_Sub078] (Eterna round: R97, puzzle: Exclusion 3)	MS2 coat protein	897
GGUCAGACGGUAGGAUAUCCAUAUCGAGUGACUCUUUCAUAACAUGAGGAUCACCCAUGUCGGUGGGAGAAGGGCCGUACGGCG [salish99_ExNG02_R04_005] (Eterna round: R96, puzzle: Exclusion NG 2)	MS2 coat protein	61.5
UUUAUGUCAGGAUAUACAUGAGGAUCACCCAUGUAUAUCUAAAAAUAUACAUGGGUAUGUAGAAGGGACCUCCU [Omei Ex3 Pseudoloop 2] (Eterna round: R97, puzzle: Exclusion 3)	MS2 coat protein	52.6
UUGUUCCGUGUAGGAUAUUGGUCUCCCUCGGGCCGAGAAGGACAUGAGGAUCACCCAUGUAUGCUAUUAUCGCGCGUGGCGCAC [Design 93] (Eterna round: R96, puzzle: Exclusion NG 1)	MS2 coat protein	138

Returns the measured apparent KD of MS2 coat protein for the input sequence. Input: CGAUGAGGAGUGAGGAUAUCGUGUUCGAAAGAACGUGAGAAGGCACAUGAGGAUCACCCAUGUGAUUCUUGUCG [Omei Ex4B A18] (Eterna round: R97, puzzle: Brourd's mod of Exclusion 4)
77.6

Returns the measured apparent KD of MS2 coat protein for the input sequence. Input: UUCUACAAGCUGAGAUCCUACAUGAGGAUCACCCAUGUGGUCCGGAACAUUCUGUCACCGGAUCUUGCUCGUCUUGU [salish99_S_TOV1_R5_104] (Eterna round: R97, puzzle: Sensor, turn-off variant 1)
41.9
